- ASSAY_NOTES: chemical genetic growth profiling, strain panel (AID 1159580);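 also: tested at 20 µM; growth read once vehicle control cultures reached saturation at 30 °C; 1 = growth at the plate median or of vehicle wells; lower values mean less growth of the strain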
- CONDITION: S. cerevisiae deletion strains, growth OD, locus YDR137W, strain rgp1, active compounds read low
Among all 5,500 compounds or so, about 2,000 (36%) were called active. Roughly 18% stayed inconclusive and do not appear here. This is one part of the list.
# maps each entry to its normalized growth

{"columns": ["MOLECULE", "normalized growth"],
 "data": [
  ["CC1(C)CC2C1CC[C@]1(CBr)CCC3C(CC(=O)O)C(=O)O[C@@]32C1 (stereo not given in full)", 0.997],
  ["CC1(C)CC2C1CC[C@]1(C)CCC3C(C(=O)O)CC(=O)O[C@@]32C1 (stereo not given in full)", 1.04],
  ["CCN(CC)CCOCCOC(=O)C1(c2ccccc2)CCCC1", 0.981],
  ["CC12CCC3C(CC3(C)C)C(C)(CCC1=O)O2 (stereo not given)", 0.977],
  ["COC(=O)c1c(OC)cc2c(c1C)Oc1c(Cl)c(OC(C)=O)c(Cl)c(C)c1C(=O)O2", 0.947],
  ["CCN(CC)CCOC(=O)C1(C2CCCCC2)CCCCC1", 1.08],
  ["NS(=O)(=O)c1cc2c(cc1Cl)NC(CSCc1ccccc1)=NS2(=O)=O", 1.02],
  ["CN1CCN(C(=O)OC2c3nccnc3C(=O)N2c2ccc(Cl)cn2)CC1 (stereo not given)", 0.998],
  ["COc1ccccc1OCC(O)CO (stereo not given)", 1.03],
  ["CC(=O)O[C@H]1CCC2(C)C3=C(CCC2C1(C)C)[C@@]1(C)CC[C@@H](C(C)CCC=C(C)C)[C@]1(C)CC3 (stereo not given in full)", 1.02]
]}

* * *

- ASSAY_NOTES: chemical genetic growth profiling, strain panel (AID 1159580);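 also: tested at 20 µM; growth read once vehicle control cultures reached saturation at 30 °C; 1 = growth at the plate median or of vehicle wells; lower values mean less growth of the strain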
- CONDITION: S. cerevisiae deletion strains, growth OD, locus YOL012C, strain htz1
The whole screen tested about 5,500 compounds, of which about 2,000 (36%) were called active. Not shown: some 18% with an inconclusive outcome. Some of the results follow.

{"columns": ["MOLECULE", "normalized growth"],
 "data": [
  ["O=C1NC(O)=NC1(c1ccccc1)c1ccccc1", 1.06],
  ["Oc1cccc(O)c1", 0.68],
  ["C=C1c2c(Cl)ccc(O)c2C(O)=C2C(=O)[C@]3(O)C(O)=C(C(N)=O)C(=O)[C@@H](N(C)C)[C@@H]3[C@@H](O)[C@H]12", 0.807],
  ["CN(C)c1ccc(O)c2c1C[C@H]1C[C@H]3[C@H](N(C)C)C(=O)C(C(N)=O)=C(O)[C@@]3(O)C(=O)C1=C2O", 0.571],
  ["CC(C)CC(NC(=O)OCC1c2ccccc2-c2ccccc21)C(=O)O (centres undefined)", 1.27],
  ["CC(C)(C)NCC(O)c1ccc(O)c(CO)c1 (centres undefined)", 1.03],
  ["O=C(O)c1ccc(S(=O)(=O)N(Cl)Cl)cc1", 2.24],
  ["CO[C@H]1CC(O[C@@H]2/C(C)=C/C[C@@H]3C[C@@H](C[C@]4(CC[C@H](C)[C@@H](C5CCCCC5)O4)O3)OC(=O)[C@@H]3C=C(C)/C(=N\\O)[C@H]4OC/C(=C\\C=C\\[C@@H]2C)[C@]43O)O[C@@H](C)C1O (some centres undefined)", 0.49],
  ["CCOC(=O)NNc1nncc2ccccc12", 1.25],
  ["CC12CCC(O)CC1CCC1C2[C@H](O)CC2(C)C(C3=CC(=O)OC3)CCC12O (some centres undefined)", 0.714],
  ["C[C@H]1c2cccc(O)c2C(O)=C2C(=O)[C@]3(O)C(O)=C(C(N)=O)C(=O)[C@@H](N(C)C)[C@@H]3[C@@H](O)[C@@H]21", 1.14],
  ["C[n+]1ccccc1/C=N/O", 1.12],
  ["CCC(C)C(=O)OC1[C@@H]2CC3=C4CC(=O)O[C@@H](c5ccoc5)[C@]4(C)CCC3[C@@](C)(C2=O)[C@@H](CC(=O)OC)C1(C)C (some centres undefined)", 1.11],
  ["C=C1c2cccc(O)c2C(O)=C2C(=O)[C@]3(O)C(O)=C(C(N)=O)C(=O)[C@@H](N(C)C)[C@@H]3[C@@H](O)[C@H]12", 0.75],
  ["C=C(C)C1CCC(C)(O)C2CC3OC3(C)C2C1 (centres undefined)", 0.919],
  ["CC(CCc1ccccc1)NCC(O)c1ccc(O)c(C(N)=O)c1 (centres undefined)", 0.754],
  ["COc1ccccc1OCC(O)CO (centres undefined)", 0.827],
  ["CC(C)c1ccc2c(c1)CCC1[C@](C)(CN)CCC[C@]21C (some centres undefined)", 0.217],
  ["CCC(C)[C@H]1O[C@]2(C=C[C@@H]1C)C[C@@H]1C[C@@H](C/C=C(\\C)[C@@H](OC3C[C@H](OC)C(O[C@H]4C[C@H](OC)[C@@H](O)[C@H](C)O4)[C@H](C)O3)[C@@H](C)/C=C/C=C3\\CO[C@@H]4[C@H](O)C(C)=C[C@@H](C(=O)O1)[C@]34O)O2 (some centres undefined)", 0.305]
]}
